- Test: Agonist activity at kappa opioid receptor in rabbit vas deferens
- Type: functional, tissue-based
- Experimental Context: Oryctolagus cuniculus
Observation Type: IC50 (nM)
Reply numerically in nM, unit not repeated.

// IC50 lookup, compound = "COC(=O)N1CCN(C(=O)Cc2ccc(Cl)c(Cl)c2)[C@H](CN2CCCC2)C1" , result: 0.018

* * *

- Target Of Assay: UniProt P41144
- Sequence (P41144 whole entry): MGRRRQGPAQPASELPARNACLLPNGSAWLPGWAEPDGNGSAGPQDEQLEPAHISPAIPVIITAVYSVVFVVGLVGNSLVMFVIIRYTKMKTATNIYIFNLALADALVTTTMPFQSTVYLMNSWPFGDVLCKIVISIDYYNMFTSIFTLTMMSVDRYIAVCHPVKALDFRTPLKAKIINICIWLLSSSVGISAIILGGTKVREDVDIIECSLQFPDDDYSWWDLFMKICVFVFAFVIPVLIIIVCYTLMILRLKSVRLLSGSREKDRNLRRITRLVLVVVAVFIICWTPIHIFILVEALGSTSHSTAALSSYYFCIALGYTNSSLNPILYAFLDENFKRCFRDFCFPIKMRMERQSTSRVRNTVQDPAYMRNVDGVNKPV
Observation Type: Ki

Examples from the recorded data:
• COC(=O)N1C[C@H]2[C@@H](N3CCCC3)CC[C@@H]1CN2C(=O)Cc1ccc(Cl)c(Cl)c1 = 80 nM
• O=C(Cc1ccc(Cl)c(Cl)c1)N1C[C@H]2CC[C@@H](N3CCCC3)[C@@H]1CN2Cc1ccccc1 = 8.7 nM
• CCC(=O)N1C[C@@H]2[C@@H](N3CCCC3)CC[C@H]1CN2C(=O)Cc1ccc(Cl)c(Cl)c1 = 464 nM

# ---- query compound ----
The compound "COC(=O)N1C[C@H]2[C@H](N3CCCC3)CC[C@@H]1CN2C(=O)Cc1ccc(Cl)c(Cl)c1" on UniProt P41144: Ki was 1 nM

* * *

- Target Of Assay: Delta-type opioid receptor (Homo sapiens)
- Sequence (P41143 whole entry): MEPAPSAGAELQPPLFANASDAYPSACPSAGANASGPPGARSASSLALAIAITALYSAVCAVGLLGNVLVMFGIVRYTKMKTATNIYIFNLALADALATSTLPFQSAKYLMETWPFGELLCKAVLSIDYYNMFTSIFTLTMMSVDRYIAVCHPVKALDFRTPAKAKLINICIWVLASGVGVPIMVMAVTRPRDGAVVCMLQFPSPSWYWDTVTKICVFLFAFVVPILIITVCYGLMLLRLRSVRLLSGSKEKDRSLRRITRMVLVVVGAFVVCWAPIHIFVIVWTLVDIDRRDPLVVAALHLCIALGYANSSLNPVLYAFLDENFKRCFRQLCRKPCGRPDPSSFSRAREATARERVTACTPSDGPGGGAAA
- Test: Displacement of [3H]deltorphine-2 from human delta opioid receptor expressed in CHOK1 cells
- Format: cell-based, CHO-K1
pKi: −log10 of the molar value.
Recorded pKi values for a group of compounds are listed next.

Examples from the recorded data:
* CCC(=O)N1C[C@@H]2[C@@H](N3CCCC3)CC[C@H]1CN2C(=O)Cc1ccc(Cl)c(Cl)c1 | < 6.00
* COC(=O)N1C[C@@H]2[C@@H](N3CCCC3)CC[C@H]1CN2C(=O)Cc1ccc(Cl)c(Cl)c1 | < 6.00
* COC(=O)N1C[C@H]2[C@H](N3CCCC3)CC[C@@H]1CN2C(=O)Cc1ccc(Cl)c(Cl)c1 | < 6.00

The compound "O=C(Cc1ccc(Cl)c(Cl)c1)N1C[C@H]2CC[C@@H](N3CCCC3)[C@@H]1CN2Cc1ccccc1" on Delta-type opioid receptor (Homo sapiens): pKi was < 6.00

The compound "O=C(Cc1ccc(Cl)c(Cl)c1)N1C[C@@H]2CC[C@@H](N3CCCC3)[C@H]1CN2Cc1ccccc1" on Delta-type opioid receptor (Homo sapiens): pKi was < 6.00

The compound "O=C(Cc1ccc(Cl)c(Cl)c1)N1C[C@H]2CC[C@H](N3CCCC3)[C@@H]1CN2Cc1ccccc1" on Delta-type opioid receptor (Homo sapiens): pKi was < 6.00

The compound "CCC(=O)N1C[C@H]2[C@H](N3CCCC3)CC[C@@H]1CN2C(=O)Cc1ccc(Cl)c(Cl)c1" on Delta-type opioid receptor (Homo sapiens): pKi was < 6.00

The compound "COC(=O)N1C[C@@H]2[C@H](N3CCCC3)CC[C@H]1CN2C(=O)Cc1ccc(Cl)c(Cl)c1" on Delta-type opioid receptor (Homo sapiens): pKi was < 6.00

The compound "O=C(Cc1ccc(Cl)c(Cl)c1)N1C[C@@H]2CC[C@H](N3CCCC3)[C@H]1CN2Cc1ccccc1" on Delta-type opioid receptor (Homo sapiens): pKi was < 6.00

* * *

Recorded inhibition values for a group of compounds are listed next.
- Target Of Assay: Sigma non-opioid intracellular receptor 1 (Cavia porcellus) (UniProt Q60492)
- Sequence (Q60492 whole entry): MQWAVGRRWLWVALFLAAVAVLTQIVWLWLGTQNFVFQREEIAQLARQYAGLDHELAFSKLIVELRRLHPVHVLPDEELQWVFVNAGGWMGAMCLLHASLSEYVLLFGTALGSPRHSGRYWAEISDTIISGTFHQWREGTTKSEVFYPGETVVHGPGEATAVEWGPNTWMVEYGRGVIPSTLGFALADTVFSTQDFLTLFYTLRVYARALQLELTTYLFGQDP
- Experimental Context: Brain, Membrane, 10 uM
- Description: Displacement of[3H](+)-pentazocine from sigma1 receptor in guinea pig brain membrane at 10 uM

Examples from the recorded data:
- COC(=O)N1C[C@@H]2[C@@H](N3CCCC3)CC[C@H]1CN2C(=O)Cc1ccc(Cl)c(Cl)c1: < 10%
- COC(=O)N1C[C@H]2[C@@H](N3CCCC3)CC[C@@H]1CN2C(=O)Cc1ccc(Cl)c(Cl)c1: < 10%
- COC(=O)N1C[C@H]2[C@H](N3CCCC3)CC[C@@H]1CN2C(=O)Cc1ccc(Cl)c(Cl)c1: < 10%

# ---- query compound ----
The compound "CCC(=O)N1C[C@@H]2[C@@H](N3CCCC3)CC[C@H]1CN2C(=O)Cc1ccc(Cl)c(Cl)c1" on Sigma non-opioid intracellular receptor 1 (Cavia porcellus) (UniProt Q60492): inhibition was < 10%

Cited source: ChEMBL document CHEMBL1157818
